The reported numbers originate from the supplement of paper PMC7877785.

Assay details: self-splicing fitness, log relative to wild type (ln ratio); higher = more splicing; Tetrahymena group I intron in knt gene, E. coli kanamycin selection, DiMSum; sequences stand for … in CUCUCU…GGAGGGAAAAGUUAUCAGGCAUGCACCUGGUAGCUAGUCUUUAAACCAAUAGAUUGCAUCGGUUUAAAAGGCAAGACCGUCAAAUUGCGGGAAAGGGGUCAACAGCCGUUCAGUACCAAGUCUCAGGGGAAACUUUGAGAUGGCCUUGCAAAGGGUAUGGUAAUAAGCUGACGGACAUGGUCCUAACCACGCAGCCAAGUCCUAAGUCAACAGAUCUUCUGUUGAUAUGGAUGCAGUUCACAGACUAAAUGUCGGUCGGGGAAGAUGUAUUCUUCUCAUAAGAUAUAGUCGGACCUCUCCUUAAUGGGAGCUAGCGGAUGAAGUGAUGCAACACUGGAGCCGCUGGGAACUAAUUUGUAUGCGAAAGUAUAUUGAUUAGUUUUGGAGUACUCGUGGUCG;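 note: selection with 25 µg/mL kanamycin versus none on LB agar overnight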
Experimental setup: 37 °C
Exercise: for every item that follows, state its recorded self-splicing fitness (ln).
Answers are plain numbers.

input_sequence=UCUAAGCAAUAUUACGUAAU measure="self-splicing fitness (ln)" numeric_value=-1.66
input_sequence=GCAGAGCAAUAUUACGGAUA measure="self-splicing fitness (ln)" numeric_value=-2.92
input_sequence=GCACAGCAAUAUUACGCGAG measure="self-splicing fitness (ln)" numeric_value=-0.669
input_sequence=UUAUAGCAAUAUUACGGCAC measure="self-splicing fitness (ln)" numeric_value=-2.51
input_sequence=GCACAGCAAUAUUACGGGGG measure="self-splicing fitness (ln)" numeric_value=-0.472
input_sequence=UUCCAGCAAUAUUACGUGGC measure="self-splicing fitness (ln)" numeric_value=-3.15
input_sequence=CUCAAGCAAUAUUACGGAGG measure="self-splicing fitness (ln)" numeric_value=-0.576
input_sequence=GAGUAGCAAUAUUACGCGAU measure="self-splicing fitness (ln)" numeric_value=-2.21

Count: 4. Required value per item: self-splicing fitness (ln).
1. GGCAAGCAAUAUUACGUAGA
2. UAGUAGCAAUAUUACGAAAC
3. GCUUAGCAAUAUUACGUUUC
4. CUGUAGCAAUAUUACGAUCU

1: 0.582; 2: -2.13; 3: -0.547; 4: -2.05

Take each entry in turn and give its self-splicing fitness (ln).
1. CGUCAGCAAUAUUACGACCC
2. GGAGAGCAAUAUUACGGUAC
3. GCGCAGCAAUAUUACGUGUA
4. GAGAAGCAAUAUUACGUAGU
5. CUGUAGCAAUAUUACGAUAU

[0.0394, -2.07, -0.0774, -1.39, -2.75]

For each listed entry, give its self-splicing fitness (ln).
1. GAAAAGCAAUAUUACGUAUU
2. GUACAGCAAUAUUACGUGCA
3. AAUUAGCAAUAUUACGAUUC
4. CAUUAGCAAUAUUACGAGAG
5. GGUAAGCAAUAUUACGCUUC

[-2.16, -2.17, -1.13, -2.63, -1.58]

For every item in the list below, what is its measured self-splicing fitness (ln)?
1. UUGAAGCAAUAUUACGGUAA
2. GCUGAGCAAUAUUACGUGGA
3. GAAUAGCAAUAUUACGUACU
4. UAUCAGCAAUAUUACGACAU

1: -0.399; 2: -2.9; 3: -0.151; 4: -0.0787

# map each sequence to its self-splicing fitness (ln)
1. UCACAGCAAUAUUACGCGCG
2. GCAGAGCAAUAUUACGGCCA
3. CAUAAGCAAUAUUACGCUAA
4. AGUGAGCAAUAUUACGUCUG
5. UUACAGCAAUAUUACGUGGC
6. CAAUAGCAAUAUUACGCCAU

[-0.233, -2.11, -0.864, -2.07, -2.92, -2.43]

Please give self-splicing fitness (ln), item by item, for the list that follows.
1. AGGUAGCAAUAUUACGCUCU
2. GAUAAGCAAUAUUACGCUGA
3. CCACAGCAAUAUUACGGGUC
4. CAGUAGCAAUAUUACGUACU
5. ACCAAGCAAUAUUACGUAUU
6. UUACAGCAAUAUUACGAUAA
7. GCGAAGCAAUAUUACGUUCU
8. AUUCAGCAAUAUUACGCACC

1: -1.45; 2: -1.31; 3: -2.89; 4: -1.3; 5: -2.07; 6: -0.232; 7: -0.859; 8: 0.457

The following sequences each have a reported value; give each one's self-splicing fitness (ln).
1. GCGCAGCAAUAUUACGGGAG
2. GUAGAGCAAUAUUACGCAGA
3. GCUCAGCAAUAUUACGCGAU
4. GUUAAGCAAUAUUACGUCUG
5. GUUUAGCAAUAUUACGUGGA
6. ACAAAGCAAUAUUACGCUUG
7. CUGGAGCAAUAUUACGCAUC

1: -1.39; 2: -1.92; 3: -1.51; 4: -1.3; 5: -2.89; 6: -0.984; 7: -0.757

// each listed sequence needs a value for self-splicing fitness (ln)
1. AAUGAGCAAUAUUACGUAGC
2. GCUGAGCAAUAUUACGACAA
3. ACGUAGCAAUAUUACGAAAU
4. GCGUAGCAAUAUUACGUGGG
5. AGAUAGCAAUAUUACGGUUC
6. GGGUAGCAAUAUUACGUACG
7. CCAUAGCAAUAUUACGAAUU

1. -2.05
2. -1.07
3. -1.3
4. -3.04
5. -0.791
6. -0.536
7. -2.51

Go through the items and report each one's self-splicing fitness (ln).
1. GGAAAGCAAUAUUACGCUUA
2. AGUCAGCAAUAUUACGUAGC

[-0.998, -0.778]
